- system: Cyclin-dependent kinase 2/cyclin A (Homo sapiens)
- testName: Inhibition of CDK2/Cyclin A assessed as [33P]-gamma-ATP incorporation into substrate by gamma counting
readoutLabel: IC50

Input: Annotate the compound `CCc1cccc(CC)c1NC(=O)c1nn(C)c2c1CCc1cnc(Nc3ccc(C(=O)N4CCC[C@H]4CN4CCCC4)cc3OC(F)(F)F)nc1-2` with its measured IC50.
Output: > 10 µM

Input: Annotate the compound `CCc1cccc(CC)c1NC(=O)c1nn(C)c2c1CCc1cnc(Nc3ccccc3)nc1-2` with its measured IC50.
Output: > 10 µM

Input: Annotate the compound `CCc1cccc(CC)c1NC(=O)c1nn(C)c2c1CCc1cnc(Nc3ccc(C(=O)N4CCC[C@@H]4CN4CCCC4)cc3OC)nc1-2` with its measured IC50.
Output: > 10 µM

Input: Annotate the compound `CCc1cccc(CC)c1NC(=O)c1nn(C)c2c1CCc1cnc(Nc3ccc(C(=O)N4CCC[C@H]4CN4CCCC4)cc3OC)nc1-2` with its measured IC50.
Output: > 10 µM

Input: Annotate the compound `CCc1cccc(CC)c1NC(=O)c1nn(C)c2c1CCc1cnc(Nc3ccc(C(N)=O)cc3OC(F)(F)F)nc1-2` with its measured IC50.
Output: > 10 µM

Input: Annotate the compound `Cn1nc(C(=O)NCCc2ccccc2)c2c1-c1nc(Nc3ccccc3)ncc1CC2` with its measured IC50.
Output: 0.697 µM

Input: Annotate the compound `CCc1cccc(CC)c1NC(=O)c1nn(C)c2c1CCc1cnc(Nc3ccccc3OC)nc1-2` with its measured IC50.
Output: > 10 µM

Input: Annotate the compound `CCc1cccc(CC)c1NC(=O)c1nn(C)c2c1CCc1cnc(Nc3ccc(C(=O)N4CCCN(C)CC4)cc3OC)nc1-2` with its measured IC50.
Output: 3.62 µM

Input: Annotate the compound `Cn1nc(C(N)=O)c2c1-c1nc(Nc3ccccc3OC(F)(F)F)ncc1CC2` with its measured IC50.
Output: > 10 µM

====

- testName: Solubility of the compound at pH 7
- Format: physicochemical
- experimentalSetup: buffer
Consider the following compounds; for each one, report its solubility.

Input: Annotate the compound `CCc1cccc(CC)c1NC(=O)c1nn(C)c2c1CCc1cnc(Nc3ccc(C(N)=O)cc3OC)nc1-2` with its measured solubility.
Output: < 1 µM

Input: Annotate the compound `CCc1cccc(CC)c1NC(=O)c1nn(C)c2c1CCc1cnc(Nc3ccccc3OC(F)(F)F)nc1-2` with its measured solubility.
Output: < 1 µM

Input: Annotate the compound `CCc1cccc(CC)c1NC(=O)c1nn(C)c2c1CCc1cnc(Nc3ccccc3OC)nc1-2` with its measured solubility.
Output: < 1 µM

From: ChEMBL document CHEMBL1806399
